A collection of compounds and their measured TGI
Tested on: HL-60(TB) leukemia
EXPERIMENT_SUMMARY: NCI tumour cell line growth inhibition, 48 h
Unit µM implied. Number only.

In the examples that follow, each entry is paired with its recorded TGI.
CC[C@H](Nc1cc(C)nc(N)n1)c1nc2cccc(NCc3ccc(C(=O)NO)cc3)c2c(=O)n1-c1ccccc1 ... 6.1
CCC[CH2][Sn]1([CH2]CCC)[O]CC(c2ccccn2)C[O]1 ... 29.4
COc1ccc(CN=C2N/C(=C\c3ccccc3Cl)C(=O)N2C)cc1 ... 57.9

# query: TGI of entry Cc1ccc(/C=C2\CN(C)CC3=C2NC(=S)NC3c2ccc(C)cc2)cc1 (centres undefined)
61.4

Quick one: `O=C1C=C(Nc2ccc([N+](=O)[O-])cc2)c2ccccc2C1=O`
7.19
